Just for reference, BigSolDB 2.1 is where these values come from.

measurement-setup: in n-pentanol, 323.15 K
property-label: solubility (mole fraction)

substance-smiles: CC(=O)N1CCC[C@H]1C(=O)O
recorded-number: 0.158

====

measurement-setup: in acetone, 293.15 K

substance-smiles: CC(=O)N1CCC[C@H]1C(=O)O
solubility (mole fraction): 0.0247

====

measurement-setup: in acetone, 283.15 K

substance-smiles: CC(=O)N1CCC[C@H]1C(=O)O
solubility (mole fraction): 0.0158

====

measurement-setup: in sec-butanol, 293.15 K

substance-smiles: CC(=O)N1CCC[C@H]1C(=O)O
solubility (mole fraction): 0.062

====

measurement-setup: in ethanol, 293.15 K

substance-smiles: CC(=O)N1CCC[C@H]1C(=O)O
solubility (mole fraction): 0.111

====

measurement-setup: in water, 293.15 K

substance-smiles: CC(=O)N1CCC[C@H]1C(=O)O
solubility (mole fraction): 0.0188

====

measurement-setup: in n-butanol, 303.15 K
property-label: solubility (mole fraction)

substance-smiles: CC(=O)N1CCC[C@H]1C(=O)O
recorded-number: 0.0877

====

measurement-setup: in 2-butanone, 293.15 K

substance-smiles: CC(=O)N1CCC[C@H]1C(=O)O
solubility (mole fraction): 0.0161

====

measurement-setup: in 1,4-dioxane, 313.15 K
property-label: solubility (mole fraction)

substance-smiles: CC(=O)N1CCC[C@H]1C(=O)O
recorded-number: 0.0673

====

measurement-setup: in n-butanol, 283.15 K
property-label: solubility (mole fraction)

substance-smiles: CC(=O)N1CCC[C@H]1C(=O)O
property-label: solubility (mole fraction)
recorded-number: 0.0412

====

measurement-setup: in methyl acetate, 293.15 K

substance-smiles: CC(=O)N1CCC[C@H]1C(=O)O
solubility (mole fraction): 0.00997

====

measurement-setup: in methyl acetate, 283.15 K
property-label: solubility (mole fraction)

substance-smiles: CC(=O)N1CCC[C@H]1C(=O)O
recorded-number: 0.00602

====

measurement-setup: in methanol, 313.15 K
property-label: solubility (mole fraction)

substance-smiles: CC(=O)N1CCC[C@H]1C(=O)O
property-label: solubility (mole fraction)
recorded-number: 0.291

====

measurement-setup: in n-butanol, 323.15 K

substance-smiles: CC(=O)N1CCC[C@H]1C(=O)O
solubility (mole fraction): 0.199

====

measurement-setup: in n-pentanol, 293.15 K
property-label: solubility (mole fraction)

substance-smiles: CC(=O)N1CCC[C@H]1C(=O)O
property-label: solubility (mole fraction)
recorded-number: 0.0532

====

measurement-setup: in acetonitrile, 283.15 K

substance-smiles: CC(=O)N1CCC[C@H]1C(=O)O
solubility (mole fraction): 0.0159

====

measurement-setup: in isopropanol, 283.15 K

substance-smiles: CC(=O)N1CCC[C@H]1C(=O)O
solubility (mole fraction): 0.0448

====

measurement-setup: in isopropanol, 303.15 K

substance-smiles: CC(=O)N1CCC[C@H]1C(=O)O
solubility (mole fraction): 0.099

====

measurement-setup: in water, 303.15 K

substance-smiles: CC(=O)N1CCC[C@H]1C(=O)O
solubility (mole fraction): 0.0269

====

measurement-setup: in n-pentanol, 303.15 K

substance-smiles: CC(=O)N1CCC[C@H]1C(=O)O
solubility (mole fraction): 0.075

====

measurement-setup: in dichloromethane, 298.15 K

substance-smiles: CC(=O)N1CCC[C@H]1C(=O)O
solubility (mole fraction): 0.0785

====

measurement-setup: in water, 283.15 K
property-label: solubility (mole fraction)

substance-smiles: CC(=O)N1CCC[C@H]1C(=O)O
recorded-number: 0.0127

====

measurement-setup: in n-propanol, 313.15 K
property-label: solubility (mole fraction)

substance-smiles: CC(=O)N1CCC[C@H]1C(=O)O
recorded-number: 0.267

====

measurement-setup: in methanol, 293.15 K

substance-smiles: CC(=O)N1CCC[C@H]1C(=O)O
solubility (mole fraction): 0.166

====

measurement-setup: in isobutanol, 283.15 K

substance-smiles: CC(=O)N1CCC[C@H]1C(=O)O
solubility (mole fraction): 0.0448

====

measurement-setup: in ethanol, 303.15 K
property-label: solubility (mole fraction)

substance-smiles: CC(=O)N1CCC[C@H]1C(=O)O
property-label: solubility (mole fraction)
result: 0.156

====

measurement-setup: in n-propanol, 323.15 K
property-label: solubility (mole fraction)

substance-smiles: CC(=O)N1CCC[C@H]1C(=O)O
recorded-number: 0.334

====

measurement-setup: in ethanol, 313.15 K

substance-smiles: CC(=O)N1CCC[C@H]1C(=O)O
solubility (mole fraction): 0.219

====

measurement-setup: in water, 313.15 K
property-label: solubility (mole fraction)

substance-smiles: CC(=O)N1CCC[C@H]1C(=O)O
property-label: solubility (mole fraction)
recorded-number: 0.042

====

measurement-setup: in n-butanol, 293.15 K

substance-smiles: CC(=O)N1CCC[C@H]1C(=O)O
solubility (mole fraction): 0.059

====

measurement-setup: in dichloromethane, 303.15 K

substance-smiles: CC(=O)N1CCC[C@H]1C(=O)O
solubility (mole fraction): 0.0974

====

measurement-setup: in methyl acetate, 313.15 K

substance-smiles: CC(=O)N1CCC[C@H]1C(=O)O
solubility (mole fraction): 0.0213

====

measurement-setup: in isopropanol, 293.15 K
property-label: solubility (mole fraction)

substance-smiles: CC(=O)N1CCC[C@H]1C(=O)O
recorded-number: 0.0732

====

measurement-setup: in n-propanol, 293.15 K

substance-smiles: CC(=O)N1CCC[C@H]1C(=O)O
solubility (mole fraction): 0.14

====

measurement-setup: in 1,4-dioxane, 323.15 K

substance-smiles: CC(=O)N1CCC[C@H]1C(=O)O
solubility (mole fraction): 0.13

====

measurement-setup: in sec-butanol, 323.15 K
property-label: solubility (mole fraction)

substance-smiles: CC(=O)N1CCC[C@H]1C(=O)O
result: 0.189

====

measurement-setup: in isobutanol, 293.15 K
property-label: solubility (mole fraction)

substance-smiles: CC(=O)N1CCC[C@H]1C(=O)O
recorded-number: 0.0643

====

measurement-setup: in n-propanol, 303.15 K

substance-smiles: CC(=O)N1CCC[C@H]1C(=O)O
solubility (mole fraction): 0.195

====

measurement-setup: in 1,4-dioxane, 293.15 K

substance-smiles: CC(=O)N1CCC[C@H]1C(=O)O
solubility (mole fraction): 0.0291

====

measurement-setup: in n-propanol, 283.15 K

substance-smiles: CC(=O)N1CCC[C@H]1C(=O)O
solubility (mole fraction): 0.0961

====

measurement-setup: in 2-butanone, 313.15 K

substance-smiles: CC(=O)N1CCC[C@H]1C(=O)O
solubility (mole fraction): 0.0339

====

measurement-setup: in 2-butanone, 303.15 K

substance-smiles: CC(=O)N1CCC[C@H]1C(=O)O
solubility (mole fraction): 0.0237

====

measurement-setup: in ethyl acetate, 293.15 K

substance-smiles: CC(=O)N1CCC[C@H]1C(=O)O
solubility (mole fraction): 0.00634

====

measurement-setup: in methyl acetate, 303.15 K
property-label: solubility (mole fraction)

substance-smiles: CC(=O)N1CCC[C@H]1C(=O)O
recorded-number: 0.0147

====

measurement-setup: in acetonitrile, 293.15 K
property-label: solubility (mole fraction)

substance-smiles: CC(=O)N1CCC[C@H]1C(=O)O
property-label: solubility (mole fraction)
result: 0.0335

====

measurement-setup: in ethyl acetate, 283.15 K
property-label: solubility (mole fraction)

substance-smiles: CC(=O)N1CCC[C@H]1C(=O)O
property-label: solubility (mole fraction)
recorded-number: 0.00368

====

measurement-setup: in dichloromethane, 283.15 K
property-label: solubility (mole fraction)

substance-smiles: CC(=O)N1CCC[C@H]1C(=O)O
property-label: solubility (mole fraction)
recorded-number: 0.0336

====

measurement-setup: in ethyl acetate, 303.15 K

substance-smiles: CC(=O)N1CCC[C@H]1C(=O)O
solubility (mole fraction): 0.0096

====

measurement-setup: in sec-butanol, 283.15 K

substance-smiles: CC(=O)N1CCC[C@H]1C(=O)O
solubility (mole fraction): 0.0429

====

measurement-setup: in sec-butanol, 313.15 K
property-label: solubility (mole fraction)

substance-smiles: CC(=O)N1CCC[C@H]1C(=O)O
recorded-number: 0.132

====

measurement-setup: in 2-butanone, 323.15 K

substance-smiles: CC(=O)N1CCC[C@H]1C(=O)O
solubility (mole fraction): 0.0553

====

measurement-setup: in acetonitrile, 323.15 K

substance-smiles: CC(=O)N1CCC[C@H]1C(=O)O
solubility (mole fraction): 0.255

====

measurement-setup: in acetone, 303.15 K

substance-smiles: CC(=O)N1CCC[C@H]1C(=O)O
solubility (mole fraction): 0.0348

====

measurement-setup: in isobutanol, 303.15 K
property-label: solubility (mole fraction)

substance-smiles: CC(=O)N1CCC[C@H]1C(=O)O
recorded-number: 0.106
